# Experimental Target: EGFR wild type (Homo sapiens)
# Construct: purchased Carna Bio
# Sequence (P00533 25-1210): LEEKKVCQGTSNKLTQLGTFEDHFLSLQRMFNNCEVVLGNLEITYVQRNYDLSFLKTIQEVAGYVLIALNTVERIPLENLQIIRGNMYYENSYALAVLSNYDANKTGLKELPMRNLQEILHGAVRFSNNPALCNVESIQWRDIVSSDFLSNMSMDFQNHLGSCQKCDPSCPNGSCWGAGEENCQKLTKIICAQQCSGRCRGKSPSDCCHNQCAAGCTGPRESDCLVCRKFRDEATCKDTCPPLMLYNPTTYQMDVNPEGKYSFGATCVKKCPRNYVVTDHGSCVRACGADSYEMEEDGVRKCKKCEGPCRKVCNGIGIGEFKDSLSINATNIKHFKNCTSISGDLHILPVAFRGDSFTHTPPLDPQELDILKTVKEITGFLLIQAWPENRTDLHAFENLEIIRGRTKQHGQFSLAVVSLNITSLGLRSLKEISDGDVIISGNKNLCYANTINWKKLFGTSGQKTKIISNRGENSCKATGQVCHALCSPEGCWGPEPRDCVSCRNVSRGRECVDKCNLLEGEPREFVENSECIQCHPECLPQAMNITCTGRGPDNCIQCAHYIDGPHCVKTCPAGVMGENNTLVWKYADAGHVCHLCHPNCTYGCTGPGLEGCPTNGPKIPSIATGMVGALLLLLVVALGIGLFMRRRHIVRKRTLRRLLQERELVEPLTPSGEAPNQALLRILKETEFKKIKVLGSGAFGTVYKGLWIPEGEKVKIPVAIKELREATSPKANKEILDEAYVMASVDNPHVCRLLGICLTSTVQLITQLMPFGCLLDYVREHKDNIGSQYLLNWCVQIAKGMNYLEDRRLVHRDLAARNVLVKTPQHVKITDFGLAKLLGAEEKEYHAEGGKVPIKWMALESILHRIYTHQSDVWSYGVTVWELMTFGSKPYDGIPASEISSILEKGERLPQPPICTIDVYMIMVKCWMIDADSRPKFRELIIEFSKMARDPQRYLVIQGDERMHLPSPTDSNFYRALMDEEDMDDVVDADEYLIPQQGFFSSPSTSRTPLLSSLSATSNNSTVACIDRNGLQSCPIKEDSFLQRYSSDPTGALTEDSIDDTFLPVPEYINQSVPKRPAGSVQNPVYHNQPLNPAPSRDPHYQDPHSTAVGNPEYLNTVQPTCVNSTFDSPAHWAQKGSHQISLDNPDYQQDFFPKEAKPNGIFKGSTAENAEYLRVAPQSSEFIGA
# Assay Summary: Inhibition of EGFR wild type biochemical enzymatic activity (HTRF)
# Condition Context: EGFR wild type, 1 mM ATP, 1 h at room temperature, read-out: IC50 @WT
# Method: Biological Example 1: Inhibition of EGFR WT and Mutant Biochemical Enzymatic Activity The inhibition potency of compounds against these enzymes was assessed using Homogenous Time Resolved Fluorescence approach (HTRF, CisBio. Cat No. 62TKOPEJ). Inhibitory effects of the compounds were determined by measuring the enzymatic activity of EGFR enzyme phosphorylates 1 μM TK Substrate-biotin in the presence of 1 mM adenosine-5′-triphosphate (ATP) and varying concentrations of the test compound. […]
Listed here: items and their measured IC50.

Examples with answers:
Cc1cc2cc(n1)-c1cnn(C)c1OCCN1CC3CCC(C3)(C1)n1c(nc3ccc(N4CC5CC4CN5C)cc31)NC2=O (single isomer, unassigned) [Example B53A]: > 5 µM
Cc1cc2cc(n1)-c1cnn(C)c1OCCC[C@@H](C)Cn1c(nc3ccc4c(c31)CCN(CCN(C)C)C4)NC2=O: > 5 µM

Data request: Identify the reported IC50 for the following entry. CCN1CCN(c2ccc3nc4n(c3c2)C23CCC(CN(CCOc5c(cnn5C)-c5cc(cc(C)n5)C(=O)N4)C2)C3)CC1 (single isomer, unassigned) [Example B56A]
Data returned: > 5 µM
